Biological target: E. coli RNA polymerase σ^70 holoenzyme (Escherichia coli, UniProt P0A8T7+P0A8V2)
Sequence (P0A8T7 whole entry): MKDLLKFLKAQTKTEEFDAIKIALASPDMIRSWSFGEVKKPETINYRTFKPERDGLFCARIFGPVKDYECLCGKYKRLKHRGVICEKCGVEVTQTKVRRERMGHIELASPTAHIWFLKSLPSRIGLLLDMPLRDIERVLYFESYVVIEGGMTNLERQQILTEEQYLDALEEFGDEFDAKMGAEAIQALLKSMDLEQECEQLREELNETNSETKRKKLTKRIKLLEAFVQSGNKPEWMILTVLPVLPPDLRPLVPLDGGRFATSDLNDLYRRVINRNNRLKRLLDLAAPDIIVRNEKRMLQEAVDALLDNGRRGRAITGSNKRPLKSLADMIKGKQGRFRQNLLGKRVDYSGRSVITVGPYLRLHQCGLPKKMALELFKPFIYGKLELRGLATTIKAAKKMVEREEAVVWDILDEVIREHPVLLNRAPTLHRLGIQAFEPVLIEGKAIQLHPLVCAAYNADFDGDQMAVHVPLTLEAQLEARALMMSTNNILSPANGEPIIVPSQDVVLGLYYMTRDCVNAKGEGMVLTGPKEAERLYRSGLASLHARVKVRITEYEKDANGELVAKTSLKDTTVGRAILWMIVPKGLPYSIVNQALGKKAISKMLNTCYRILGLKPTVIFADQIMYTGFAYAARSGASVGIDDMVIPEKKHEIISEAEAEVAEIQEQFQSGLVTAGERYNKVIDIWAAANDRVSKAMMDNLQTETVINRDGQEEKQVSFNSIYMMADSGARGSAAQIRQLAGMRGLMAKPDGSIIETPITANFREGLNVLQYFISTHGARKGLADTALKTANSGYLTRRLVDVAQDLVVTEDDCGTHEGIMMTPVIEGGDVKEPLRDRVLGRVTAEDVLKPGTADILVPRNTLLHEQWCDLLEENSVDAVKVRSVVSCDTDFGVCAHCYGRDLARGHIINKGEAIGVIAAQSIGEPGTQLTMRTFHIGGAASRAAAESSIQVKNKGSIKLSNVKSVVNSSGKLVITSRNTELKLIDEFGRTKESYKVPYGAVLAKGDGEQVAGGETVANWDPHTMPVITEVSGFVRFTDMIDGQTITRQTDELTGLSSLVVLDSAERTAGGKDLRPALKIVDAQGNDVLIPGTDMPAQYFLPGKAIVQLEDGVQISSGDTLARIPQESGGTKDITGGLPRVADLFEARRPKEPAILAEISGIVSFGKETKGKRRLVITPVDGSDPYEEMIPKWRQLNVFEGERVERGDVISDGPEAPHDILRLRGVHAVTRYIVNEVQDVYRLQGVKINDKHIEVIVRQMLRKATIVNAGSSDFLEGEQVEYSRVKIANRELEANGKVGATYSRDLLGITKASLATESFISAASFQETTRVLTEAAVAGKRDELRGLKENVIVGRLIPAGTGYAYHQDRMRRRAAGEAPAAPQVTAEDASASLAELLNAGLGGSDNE
Sequence (P0A800 whole entry, further chain): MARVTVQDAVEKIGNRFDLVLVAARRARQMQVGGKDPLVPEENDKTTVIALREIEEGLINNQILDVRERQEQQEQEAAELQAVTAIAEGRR
Sequence (P0A8V2 whole entry): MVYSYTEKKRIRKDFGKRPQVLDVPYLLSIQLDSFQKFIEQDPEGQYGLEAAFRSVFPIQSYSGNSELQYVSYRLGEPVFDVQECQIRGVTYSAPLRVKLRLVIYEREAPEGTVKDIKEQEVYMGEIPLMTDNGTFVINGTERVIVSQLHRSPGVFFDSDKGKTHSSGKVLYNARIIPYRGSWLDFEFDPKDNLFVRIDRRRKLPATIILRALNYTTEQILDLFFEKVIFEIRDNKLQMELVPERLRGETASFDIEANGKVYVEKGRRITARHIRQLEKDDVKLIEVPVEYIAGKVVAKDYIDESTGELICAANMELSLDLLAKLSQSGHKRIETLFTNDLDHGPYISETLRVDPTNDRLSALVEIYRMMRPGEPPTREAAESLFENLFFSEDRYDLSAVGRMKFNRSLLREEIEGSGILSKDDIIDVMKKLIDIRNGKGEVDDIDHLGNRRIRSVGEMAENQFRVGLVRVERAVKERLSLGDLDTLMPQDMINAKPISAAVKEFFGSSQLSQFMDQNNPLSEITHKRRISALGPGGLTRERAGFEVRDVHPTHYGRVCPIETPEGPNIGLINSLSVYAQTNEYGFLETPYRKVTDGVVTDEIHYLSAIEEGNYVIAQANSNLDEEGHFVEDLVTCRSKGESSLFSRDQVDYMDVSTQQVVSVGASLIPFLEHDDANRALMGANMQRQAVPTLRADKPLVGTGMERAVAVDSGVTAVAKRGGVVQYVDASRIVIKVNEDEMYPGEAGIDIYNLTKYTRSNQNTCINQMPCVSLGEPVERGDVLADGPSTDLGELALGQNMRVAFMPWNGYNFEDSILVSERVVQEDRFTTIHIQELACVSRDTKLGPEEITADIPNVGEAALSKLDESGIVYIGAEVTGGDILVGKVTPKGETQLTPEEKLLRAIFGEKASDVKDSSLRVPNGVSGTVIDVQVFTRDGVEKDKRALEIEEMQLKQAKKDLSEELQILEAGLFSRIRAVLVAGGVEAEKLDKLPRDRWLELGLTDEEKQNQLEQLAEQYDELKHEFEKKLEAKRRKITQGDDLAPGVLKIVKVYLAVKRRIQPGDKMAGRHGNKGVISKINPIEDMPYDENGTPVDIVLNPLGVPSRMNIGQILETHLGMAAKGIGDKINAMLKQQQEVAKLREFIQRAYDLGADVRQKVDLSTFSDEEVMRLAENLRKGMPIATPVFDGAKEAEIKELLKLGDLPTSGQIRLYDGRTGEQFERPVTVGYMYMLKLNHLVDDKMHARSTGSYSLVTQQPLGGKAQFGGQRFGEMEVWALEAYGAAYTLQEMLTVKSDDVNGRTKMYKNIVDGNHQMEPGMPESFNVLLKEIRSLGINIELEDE
Sequence (P00579 whole entry, further chain): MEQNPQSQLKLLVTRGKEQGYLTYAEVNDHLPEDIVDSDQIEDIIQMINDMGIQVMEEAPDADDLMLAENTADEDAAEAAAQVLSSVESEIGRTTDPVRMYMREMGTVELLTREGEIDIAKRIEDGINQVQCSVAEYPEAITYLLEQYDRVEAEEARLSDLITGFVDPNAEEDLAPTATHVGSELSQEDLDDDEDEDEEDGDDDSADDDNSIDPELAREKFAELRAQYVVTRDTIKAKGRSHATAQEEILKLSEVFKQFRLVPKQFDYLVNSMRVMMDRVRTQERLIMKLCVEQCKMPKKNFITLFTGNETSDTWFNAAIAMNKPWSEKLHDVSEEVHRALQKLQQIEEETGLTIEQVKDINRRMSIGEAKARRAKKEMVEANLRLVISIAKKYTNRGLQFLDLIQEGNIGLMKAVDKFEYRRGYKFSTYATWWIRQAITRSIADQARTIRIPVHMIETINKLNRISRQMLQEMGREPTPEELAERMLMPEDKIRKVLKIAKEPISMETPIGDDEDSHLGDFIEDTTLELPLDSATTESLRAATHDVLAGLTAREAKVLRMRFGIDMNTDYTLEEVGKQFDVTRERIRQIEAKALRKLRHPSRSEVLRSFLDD
Sequence (P0A7Z4 whole entry, further chain): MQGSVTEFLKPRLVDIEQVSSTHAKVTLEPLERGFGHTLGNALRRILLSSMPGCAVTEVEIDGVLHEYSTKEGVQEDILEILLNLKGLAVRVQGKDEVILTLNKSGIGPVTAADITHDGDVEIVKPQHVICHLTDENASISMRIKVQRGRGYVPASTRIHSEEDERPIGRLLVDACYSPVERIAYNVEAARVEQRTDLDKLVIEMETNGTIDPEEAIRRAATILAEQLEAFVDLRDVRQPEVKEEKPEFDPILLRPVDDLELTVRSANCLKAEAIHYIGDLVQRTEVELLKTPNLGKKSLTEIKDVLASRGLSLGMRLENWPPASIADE
Test: Fluorescence-detected RNA polymerase assay, E. coli RNA polymerase
Conditions: read-out: IC50 E. coli RNAP
pIC50: −log10 of the molar value.
MEASURED PARAMETER: pIC50

Answered examples (2):
> print(dat)
                                   molecule                              study.target  experimental.value
1  CCc1ccc(C=C(C)C(=O)c2c(O)cc(C(C)CC/C=C/NC(=O)OC)oc2=O)cc1 (mixture of isomers) [APY70]  E. coli RNA polymerase σ^70 holoenzyme (Escherichia coli, UniProt P0A8T7+P0A8V2)              < 5.22
2  COC(=O)N/C=C/CCC(C)c1cc(O)c(C(=O)C(C)=Cc2ccc(OCC3CCCO3)cc2)c(=O)o1 (mixture of isomers) [APY54]  E. coli RNA polymerase σ^70 holoenzyme (Escherichia coli, UniProt P0A8T7+P0A8V2)              < 5.22

Next up:
// query # input molecule: COC(=O)N/C=C/CCC(C)c1cc(O)c(C(=O)C(C)=Cc2ccc(OC)s2)c(=O)o1 (mixture of isomers) [APY101] ; wanted: its pIC50
// result < 5.22

---

Test system: Staphylococcus aureus ATCC 12600
API: label(entry) gives true (1) if the entry's MIC is strictly smaller than 1 µg/mL; on equality or larger values it gives false (0).

# count of solved cases: 5
> print(dat)
                                   compound  label.value
1  CCCCc1ccc2cc(C=C(C)C(=O)c3c(O)cc(C(C)CC/C=C/NC(=O)OC)oc3=O)sc2c1 (mixture of isomers)    false (0)
2  COC(=O)N/C=C/CCC(C)c1cc(O)c(C(=O)C(C)=Cc2ccc(C)s2)c(=O)o1 (mixture of isomers)    false (0)
3  COC(=O)N/C=C/CCC(C)c1cc(O)c(C(=O)C(C)=Cc2ccc(OCCC(C)(C)C)cc2)c(=O)o1 (mixture of isomers)    false (0)
4  CCCCc1ccc(C=C(C)C(=O)c2c(O)cc(C(C)CC/C=C/NC(=O)OC)oc2=O)s1 (mixture of isomers)     true (1)
5  COCc1ccc(C=C(C)C(=O)c2c(O)cc(C(C)CC/C=C/NC(=O)OC)oc2=O)s1 (mixture of isomers)    false (0)

// query Bench note: check whether COC(=O)N/C=C/CCC(C)c1cc(O)c(C(=O)C(C)=Cc2ccc(CCC3CC3)s2)c(=O)o1 (mixture of isomers) shows MIC below 1 µg/mL
// result true (1)

// query Bench note: check whether COC(=O)N/C=C/CCC(C)c1cc(O)c(C(=O)C(C)=Cc2ccc(CCC(C)C)s2)c(=O)o1 (mixture of isomers) shows MIC below 1 µg/mL
// result true (1)

// query Bench note: check whether CCCCCCc1cccc(C=C(C)C(=O)c2c(O)cc(C(C)CC/C=C/NC(=O)OC)oc2=O)c1 (mixture of isomers) shows MIC below 1 µg/mL
// result false (0)

// query Bench note: check whether COC(=O)N/C=C/CCC(C)c1cc(O)c(C(=O)C(C)=Cc2ccc(CCC(F)(F)F)cc2C)c(=O)o1 (mixture of isomers) shows MIC below 1 µg/mL
// result false (0)

// query Bench note: check whether CCCCOc1ccc(C=C(C)C(=O)c2c(O)cc(C(C)CC/C=C/NC(=O)OC)oc2=O)c(C)c1 (mixture of isomers) shows MIC below 1 µg/mL
// result false (0)

// query Bench note: check whether CCCCc1ccc2oc(C=C(C)C(=O)c3c(O)cc(C(C)CC/C=C/NC(=O)OC)oc3=O)cc2c1 (mixture of isomers) shows MIC below 1 µg/mL
// result false (0)

// query Bench note: check whether CCCOc1ccc(C=C(C)C(=O)c2c(O)cc(C(C)CC/C=C/NC(=O)OC)oc2=O)s1 (mixture of isomers) shows MIC below 1 µg/mL
// result false (0)

// query Bench note: check whether COC(=O)N/C=C/CCC(C)c1cc(O)c(C(=O)C(C)=Cc2ccc(OCC(F)F)s2)c(=O)o1 (mixture of isomers) shows MIC below 1 µg/mL
// result false (0)

// query Bench note: check whether COC(=O)N/C=C/CCC(C)c1cc(O)c(C(=O)C(C)=Cc2ccc(OCC(F)F)cc2C)c(=O)o1 (mixture of isomers) shows MIC below 1 µg/mL
// result false (0)

// query Bench note: check whether COC(=O)N/C=C/CCC(C)c1cc(O)c(C(=O)C(C)=Cc2ccc(CCC(F)(F)F)s2)c(=O)o1 (mixture of isomers) shows MIC below 1 µg/mL
// result true (1)
